# experimental.target: interaction between the human Keap1 Kelch domain and an Nrf2-ETGE peptide (Homo sapiens, UniProt Q14145)
# Construct: 1nM purified human Keap1 Kelch domain (A321-T609) fused with N-terminal 6x His-tag; made in house
# Sequence (Q14145 321-609): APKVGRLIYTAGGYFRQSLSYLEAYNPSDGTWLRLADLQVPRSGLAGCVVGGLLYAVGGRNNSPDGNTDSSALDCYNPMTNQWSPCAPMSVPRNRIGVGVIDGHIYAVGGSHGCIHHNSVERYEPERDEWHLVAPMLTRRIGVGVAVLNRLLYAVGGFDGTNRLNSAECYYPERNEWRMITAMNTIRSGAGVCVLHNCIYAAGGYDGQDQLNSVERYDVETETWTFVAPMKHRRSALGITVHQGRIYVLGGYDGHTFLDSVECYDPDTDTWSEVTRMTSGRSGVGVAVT
# assay.explanation: Keap1-Nrf2 TR-FRET (HTRF) assay
# Type: binding
# experimental.setup: Table 1; geometric mean ± sd of at least 3 independent repeats unless stated; read-out: TR-FRET IC50
*1 amine or outer side, *2 acyl side, *3 side chain or, on linkers, in order; H or OH if unused. Where a SMILES comes first, the peptide text is derived from it. Bridges are numbered along the chain shown (N, C = ends). mXylylene = c1cc(C[*:1])cc(C[*:2])c1
quantity.measured: IC50 (nM)
Answer format: numeric, nM implied, no suffix.

Example results:
compound	value.unit	IC50
CC(=O)N[C@@H](CC(C)C)C(=O)N[C@@H](CCC(N)=O)C(=O)N[C@H]1CSCc2cccc(c2)CSC[C@@H](C(=O)N[C@@H](CC(C)C)C(N)=O)NC(=O)[C@H](CCC(=O)O)NC(=O)CNC(=O)[C@H]([C@@H](C)O)NC(=O)[C@H](CCC(=O)O)NC(=O)[C@@H]2CCCN2C(=O)[C@H](CC(=O)O)NC1=O [Peptide P2-C] (Ac-LQCDPETGECL-NH2; linker 3-10 via mXylylene)	nM	5.6
CC(=O)N[C@H]1CSCc2cccc(c2)CSC[C@@H](C(=O)N[C@@H](CC(C)C)C(N)=O)NC(=O)[C@H](CCC(=O)O)NC(=O)CNC(=O)[C@H]([C@@H](C)O)NC(=O)[C@H](CCC(=O)O)NC(=O)[C@@H]2CCCN2C(=O)[C@H](CC(=O)O)NC(=O)[C@H](CC(C)C)NC(=O)[C@H](CCC(N)=O)NC1=O [Peptide P1-C] (Ac-CQLDPETGECL-NH2; linker 1-10 via mXylylene)	nM	2.1

Let us examine a further case.
The reported IC50 of the compound CC(=O)N[C@@H](CS)C(=O)N[C@@H](CC(C)C)C(=O)N[C@@H](CCC(N)=O)C(=O)N[C@@H](CC(C)C)C(=O)N[C@@H](CC(=O)O)C(=O)N1CCC[C@H]1C(=O)N[C@@H](CCC(=O)O)C(=O)N[C@H](C(=O)NCC(=O)N[C@@H](CCC(=O)O)C(=O)N[C@@H](CS)C(=O)N[C@@H](CC(C)C)C(N)=O)[C@@H](C)O [Peptide P3] (Ac-CLQLDPETGECL-NH2) was 5
